# Tested on: K-562
# TEST: NCI60 one-dose screen
# Format: cell-based
# SETTINGS: Homo sapiens, K562, read-out: Growth percent
MEASURE NAME: activity at 10 µM (%)
Quick note: give the figure in %, leave out the unit.

| MOLECULE | STUDY SYSTEM | MEASURE NAME | VALUE REPORTED |
| --- | --- | --- | --- |
| CC[C@]12C=CCN3CC[C@@]4(c5ccc(OC)cc5N(C)[C@H]4[C@@](O)(C(=O)OC)[C@@H]1OC(=O)CCCC[P+](c1ccc(OC)cc1)(c1ccc(OC)cc1)c1ccc(OC)cc1)[C@@H]32 [10b] | K-562 | activity at 10 µM | 1.01 |

QUERY: Looking for the measured activity at 10 µM of CC[C@]12C=CCN3CC[C@@]4(c5ccc(OC)cc5N(C)[C@H]4[C@@](O)(C(=O)OC)[C@@H]1OC(=O)CCC[P+](c1ccccc1)(c1ccccc1)c1ccccc1OC)[C@@H]32 [9f] , can you help?
RESULT: -43.4

QUERY: Queued: CC[C@]12C=CCN3CC[C@@]4(c5ccc(OC)cc5N(C)[C@H]4[C@@](O)(C(=O)OC)[C@@H]1OC(=O)CCCC[P+](c1ccc(C)cc1)(c1ccc(C)cc1)c1ccc(C)cc1)[C@@H]32 [10a]
RESULT: 0.8

====

Attribute: activity at 10 µM
# Test system: T-47D
# TEST: NCI60 one-dose screen
# Type: cell-based
# SETTINGS: Homo sapiens, T47D; T-47D, 10 μM, one-dose; read-out: Growth percent

Guide cases for activity at 10 µM, answers given:
| COMPOUND | VALUE REPORTED |
| --- | --- |
| CC[C@]12C=CCN3CC[C@@]4(c5ccc(OC)cc5N(C)[C@H]4[C@@](O)(C(=O)OC)[C@@H]1OC(=O)CCC[P+](c1ccccc1)(c1ccccc1)c1ccccc1)[C@@H]32 [compound 3, reference compound] | 1.08% |
| CC[C@]12C=CCN3CC[C@@]4(c5ccc(OC)cc5N(C)[C@H]4[C@@](O)(C(=O)OC)[C@@H]1OC(=O)CCCC[P+](c1ccc(F)cc1)(c1ccc(F)cc1)c1ccc(F)cc1)[C@@H]32 [10c] | 12.8% |

QUERY: Looking for the measured activity at 10 µM of CC[C@]12C=CCN3CC[C@@]4(c5ccc(OC)cc5N(C)[C@H]4[C@@](O)(C(=O)OC)[C@@H]1OC(=O)CCC[P+](c1ccc(OC)cc1)(c1ccc(OC)cc1)c1ccc(OC)cc1)[C@@H]32 , can you help?
RESULT: -61.4%

QUERY: Queued: CCC12C=CCN3CCC4(c5ccc(OC)cc5N(C)C4C(O)(C(=O)OC)C1OC(=O)c1ccc(C[P+](c4ccccc4)(c4ccccc4)c4ccccc4)cc1)C32 (stereo not shown)
RESULT: 7.1%

====

# Test system: ACHN
# TEST: NCI60 five-dose screen
# Format: cell-based
# SETTINGS: Homo sapiens
MEASURE NAME: GI50 (µM)
Quick note: give the figure in µM, leave out the unit.

| COMPOUND | STUDY SYSTEM | MEASURE NAME | VALUE REPORTED |
| --- | --- | --- | --- |
| CC[C@]12C=CCN3CC[C@@]4(c5ccc(OC)cc5N(C)[C@H]4[C@@](O)(C(=O)OC)[C@@H]1OC(=O)CCC[P+](c1ccccc1)(c1ccccc1)c1ccccc1OC)[C@@H]32 | ACHN | GI50 | 4.58 |

Let us examine a further case.
QUERY: Looking for the measured GI50 of CC[C@]12C=CCN3CC[C@@]4(c5ccc(OC)cc5N(C)[C@H]4[C@@](O)(C(=O)OC)[C@@H]1OC(=O)CCCC[P+](C1CCCCC1)(C1CCCCC1)C1CCCCC1)[C@@H]32 [10d] , can you help?
RESULT: 16
